# Experimental System: EBNA-1 DNA-binding domain (Epstein-Barr virus)
# Method Summary: blockers of EBV EBNA-1 DNA binding, IC50 – biochemical, fluorescence polarization, dose response, assay provider data, late-stage follow-up (AID 493079)
# Condition Details: recombinant EBNA1 DBD, Cy5-DNA fluorescence polarization
The source made the active and inactive calls.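 How the source made its calls: active means IC50 of 10 µM or lower for blocking Epstein-Barr viral protein EBNA-1 from binding DNA; inactive means IC50 above 10 µM.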
Endpoint: IC50

>>> result("COc1ccc2nc(NC(=O)c3ccc(C)c(C)c3)sc2c1")
"> 148 µM (inactive)"
>>> result("Cc1ccccc1-n1nnnc1SCC(=O)c1cc(C)n(CC2CCCO2)c1C (stereo unspecified)")
"> 148 µM (inactive)"
>>> result("Cc1ccc(C(=O)Nc2nc3ccc(Br)cc3s2)cc1C")
"> 148 µM (inactive)"
>>> result("Cc1cccc(-n2nnnc2SCC(=O)c2cc(C)n(CC3CCCO3)c2C)c1 (stereo unspecified)")
"> 148 µM (inactive)"

The value of IC50 measured for the compound Cc1cc(C(=O)CSc2nnnn2C)c(C)n1CC1CCCO1 (stereo unspecified) turned out to be > 148 µM (inactive)

---

# Experimental System: EBNA-1 DNA-binding domain (Epstein-Barr virus)
# Method Summary: blockers of EBV EBNA-1 DNA binding, IC50 – biochemical, fluorescence polarization, dose response, assay provider data, late-stage follow-up (AID 493079)
# Condition Details: recombinant EBNA1 DBD, Cy5-DNA fluorescence polarization
Activity calls are given as the source filed them.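 Rule for the calls: active = IC50 of 10 µM or lower for blocking Epstein-Barr viral protein EBNA-1 from binding DNA; inactive = IC50 above 10 µM.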
Please answer using one outcome listed in t for active, f for inactive

>>> assigned_category("Cc1ccc(-n2nnnc2SCC(=O)c2cc(C)n(CC3CCCO3)c2C)cc1 (stereo not drawn)")
"t"
>>> assigned_category("Cc1ccc(C(=O)Nc2nc3ccc(S(C)(=O)=O)cc3s2)cc1")
"f"
>>> assigned_category("CS(=O)(=O)c1ccc2nc(NC(=O)c3cccc(F)c3)sc2c1")
"f"

Could you check what this test reported for "CS(=O)(=O)c1ccc2nc(NC(=O)c3ccccc3F)sc2c1" ?
f

What was the test verdict on "Cc1ccc(C(=O)Nc2nc3cc(Br)ccc3s2)cc1C" ?
f

GET /call?item= O=C(CSc1nnnn1-c1ccccc1)c1ccn(CC2CCCO2)c1 (stereo not drawn) returns the recorded outcome of this test.
f

Status in this test for "Cc1cccc(C(=O)Nc2nc3ccc(S(C)(=O)=O)cc3s2)c1" ?
f

GET /call?item= "COc1cccc2sc(NC(=O)c3ccc(C)c(C)c3)nc12" returns the recorded outcome of this test.
f

Could you kindly confirm the outcome this assay logged for "CS(=O)(=O)c1ccc2nc(NC(=O)c3cccc(Cl)c3)sc2c1" ?
f

Check the results log: what was the call for "Cc1ccccc1C(=O)Nc1nc2ccc(S(C)(=O)=O)cc2s1" ?
f

Hi, sorry to bother you, what did the test record for "CS(=O)(=O)c1ccc2nc(NC(=O)c3ccc(Cl)cc3)sc2c1" ?
f

// outcome(item) with item = "CS(=O)(=O)c1ccc2nc(NC(=O)c3ccccc3Cl)sc2c1"
f

Test call, this molecule: "COc1ccccc1C(=O)Nc1nc2ccc(S(C)(=O)=O)cc2s1"
f

---

# Experimental System: EBNA-1 DNA-binding domain (Epstein-Barr virus)
# Method Summary: blockers of EBV EBNA-1 DNA binding, IC50 – biochemical, fluorescence polarization, dose response, assay provider data, late-stage follow-up (AID 493079)
# Condition Details: recombinant EBNA1 DBD, Cy5-DNA fluorescence polarization
Activity calls are given as the source filed them.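 How the source made its calls: active means IC50 of 10 µM or lower for blocking Epstein-Barr viral protein EBNA-1 from binding DNA; inactive means IC50 above 10 µM.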
Endpoint: IC50

Some solved entries appear below for comparison.
>>> result("COc1ccc2sc(NC(=O)c3ccc(C)c(C)c3)nc2c1")
"> 148 µM (inactive)"
>>> result("Cc1cc(C(=O)CSc2nnnn2-c2cccc(F)c2)c(C)n1CC1CCCO1 (stereo unspecified)")
"> 148 µM (inactive)"
>>> result("COc1ccc(C(=O)Nc2nc3ccc(S(C)(=O)=O)cc3s2)cc1")
"inactive"
>>> result("Cc1cc(C(=O)CSc2nnnn2-c2ccc(Cl)cc2)c(C)n1CC1CCCO1 (stereo unspecified)")
"> 148 µM (inactive)"
>>> result("Cc1cc(C(=O)CSc2nnnn2-c2ccccc2)c(C)n1C")
"inactive"
>>> result("Cc1ccc(C(=O)Nc2nc3cc(F)ccc3s2)cc1C")
"> 148 µM (inactive)"

Give measured IC50 for every item shown.
1. COCCn1c(C)cc(C(=O)CSc2nnnn2-c2ccccc2)c1C
2. Cc1cc(C(=O)CSc2nnnn2-c2ccccc2)c(C)n1Cc1cccs1
3. Cc1cc(C(=O)CSc2nnnn2C2CC2)c(C)n1CC1CCCO1 (stereo unspecified)

1. > 148 µM (inactive)
2. > 148 µM (inactive)
3. inactive

List the reported IC50 of each compound below.
1. COc1cccc(C(=O)Nc2nc3ccc(S(C)(=O)=O)cc3s2)c1
2. CCn1c(C)cc(C(=O)CSc2nnnn2-c2ccccc2)c1C

["inactive", "> 148 µM (inactive)"]
